- System: RARg:RXRa (NR concentration 270 nM, RXRa partner concentration 90 nM)
- ASSAY_TEXT: PBM binding z-score (relative to random genomic background probes); higher = stronger binding; sequences stand for … in GC…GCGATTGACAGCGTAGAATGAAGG
PROPERTY_MEASURED: PBM binding z-score
# answer = number (no unit)

Illustrative cases are given below, each with its answer.
| INPUT_SEQUENCE | PBM binding z-score |
| --- | --- |
| ATCGGAAGGTCGTGAGGTGAGTATACAGAAAGGC | 3.03 |
| CCTAGTTGGTTAGGAGGTCACACACCGGATATGA | 4.04 |
| ATACTAAGGTGATCGTGAGGTCGTTGATACTAAC | 2.89 |
| TCTATTAGTTGAAGGGCAACCAACGAGTCCGTTT | 0.447 |
| TCATATAGGTAAGACAGGTGAAAGTCGGCATCTA | 0.754 |

Query: If you can, please state the reported PBM binding z-score value of GCTTGGAGATCAAGGTTAAGAAAGACTAAGCTAA .
Result: 0.332

Query: Can you check CAAACTAGGTCAACGGAAGGTCAAAGTCCGCATG next?
Result: 8.1

Query: Can you check AGAACGAGGGCAATGAGTTGATACCACGGGTGGC next?
Result: 1.02
